molecular target: Single-stranded DNA cytosine deaminase (Homo sapiens) (UniProt Q9GZX7); assay: Primary qHTS assay for inhibitors of Activation Induced Cytidine Deaminase (AID): AID signal; conditions: AID deamination FRET fluorescence, UDG-coupled, 4 h; series mostly up to 115 µM; also: nearly all actives have a fitted effect of over 25% in size
Sequence (Q9GZX7 whole entry, looked up): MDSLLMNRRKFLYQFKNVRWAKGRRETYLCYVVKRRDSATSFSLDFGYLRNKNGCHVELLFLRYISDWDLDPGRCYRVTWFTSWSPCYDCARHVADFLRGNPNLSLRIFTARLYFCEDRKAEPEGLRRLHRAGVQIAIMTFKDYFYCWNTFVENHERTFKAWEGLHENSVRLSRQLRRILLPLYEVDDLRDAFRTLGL
Screen size: about 91,000 compounds; about 290 (0.32%) were called active. About 7% were inconclusive and are not listed. Calls follow the shape of the dose curve; as a rule, active = well fitted inhibition curve with a large enough effect; inconclusive = small, poorly fitted or top-dose-only effect; inactive = no such curve, though single readings can be large or run the other way. Many of the other results were omitted from the sample, so actives are more common in it than they were.
Classes to choose from: True for active, False for inactive

{"Compound": "Cc1cccc2c(CCN)c[nH]c12", "Measured on": "Single-stranded DNA cytosine deaminase (Homo sapiens) (UniProt Q9GZX7)", "Group label": "False"}
{"Compound": "COC1CC(OC2CCC3(C=O)[C@H]4CCC5(C)C(C6=CC(=O)OC6)CCC5(O)[C@@H]4CCC3(O)C2)OC(C)C1O (stereo not given in full)", "Measured on": "Single-stranded DNA cytosine deaminase (Homo sapiens) (UniProt Q9GZX7)", "Group label": "False"}
{"Compound": "CC(=O)c1c(O)c(C)c(O)c(Cc2c(O)c3c(c(C(=O)/C=C/c4ccccc4)c2O)OC(C)(C)C=C3)c1O", "Measured on": "Single-stranded DNA cytosine deaminase (Homo sapiens) (UniProt Q9GZX7)", "Group label": "True"}
{"Compound": "O=C(O)CCS(=O)(=O)C(Cl)Cl", "Measured on": "Single-stranded DNA cytosine deaminase (Homo sapiens) (UniProt Q9GZX7)", "Group label": "False"}

Below: the item to evaluate.
Inquiry: # lookup: test call for COc1cccc(CNCCc2ccccc2)c1
Reply text: False
